Data origin, for the record: the supplement of paper PMC6757056

B1: library; a variant is named by its letters at N, in order (parent)
chain: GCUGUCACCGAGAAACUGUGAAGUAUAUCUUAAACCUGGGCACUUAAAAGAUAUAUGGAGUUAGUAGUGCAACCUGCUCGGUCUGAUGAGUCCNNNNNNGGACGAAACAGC

# Variants of: B1
# Test Method Notes: normalized RNA/DNA level without ligand (relative to sTRSVctl = 100) (log10 (% of sTRSVctl)); HEK293T; ligand: cyclic di-GMP (c-di-GMP-II aptamer); higher = less ribozyme self-cleavage, higher mRNA level
# Reported Conditions: reporter: mCherry (pCS4076), ligand present: no
# normalized RNA/DNA level without ligand (log10) listing for each entry below
Attribute Measured: normalized RNA/DNA level without ligand (log10)

changes=GAUUGU quantitative_readout=1.65
changes=CGAGCG quantitative_readout=1.81
changes=CAUGGA quantitative_readout=1.52
changes=AGAUGG quantitative_readout=1.55
changes=AGAAUU quantitative_readout=1.65
changes=GUCACU quantitative_readout=1.71
changes=CACGCC quantitative_readout=1.81
changes=AGAUAC quantitative_readout=1.64
changes=GUGGUG quantitative_readout=1.69
changes=AGGAUC quantitative_readout=1.63
changes=UGUUCA quantitative_readout=1.71
changes=AGAUCG quantitative_readout=1.72
changes=GAGUGG quantitative_readout=1.84
changes=UGUAGU quantitative_readout=1.66
changes=CUAUGU quantitative_readout=1.75
changes=AGACCU quantitative_readout=1.76
changes=AGGAAG quantitative_readout=1.38
changes=GCACGA quantitative_readout=1.43
changes=AAGGUA quantitative_readout=1.4
changes=GUAAUU quantitative_readout=1.69
changes=CGUGAG quantitative_readout=1.7
changes=AGACAG quantitative_readout=1.55
